Target: hα2A receptor (Homo sapiens, UniProt P08913)
Construct: expressed in transfected cells; host or cells: CHO cells, stably transfected; membrane preparation
Sequence (P08913 whole entry): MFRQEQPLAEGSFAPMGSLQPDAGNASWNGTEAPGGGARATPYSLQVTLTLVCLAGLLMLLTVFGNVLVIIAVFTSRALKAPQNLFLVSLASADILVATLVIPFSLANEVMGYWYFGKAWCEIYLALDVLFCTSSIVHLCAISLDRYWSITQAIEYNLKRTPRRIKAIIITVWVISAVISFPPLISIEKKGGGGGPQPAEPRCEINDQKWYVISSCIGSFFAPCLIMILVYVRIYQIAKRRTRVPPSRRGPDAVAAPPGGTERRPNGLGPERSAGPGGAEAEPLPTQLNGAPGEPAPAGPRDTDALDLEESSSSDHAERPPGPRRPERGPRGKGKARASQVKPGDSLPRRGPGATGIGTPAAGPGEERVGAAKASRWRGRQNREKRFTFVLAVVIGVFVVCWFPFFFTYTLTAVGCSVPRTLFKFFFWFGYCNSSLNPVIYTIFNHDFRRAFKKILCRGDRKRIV
Experiment: Radioligand binding experiment for α2A-adrenoceptor ([3H]raulwolscine, CHO cell membranes)
Conditions: [3H]raulwolscine binding, read-out: h-α2A pIC50 (converted)
Grouping by measured IC50 is done with the following cut points: Low (below 100 nM), Mid (100 nM to below 200 nM), High (200 nM or more)

Place this compound in its band: `C/C(=C\c1ccccc1)CN1CCC(Nc2nc(Cl)c(-c3cccc(Br)c3)[nH]c2=O)CC1`
High

Place this compound in its band: `COCCOCCn1ccnc(NC2CCN(C/C(C)=C/c3ccccc3)CC2)c1=O`
High

Place this compound in its band: `C/C(=C\c1ccccc1)CN1CCC(Nc2nccn(-c3ccc(-c4ccccc4)cc3)c2=O)CC1`
Low

Place this compound in its band: `CCCn1ccnc(N2CCN(C/C(C)=C/c3ccccc3)CC2)c1=O`
Mid

Place this compound in its band: `C/C(=C\c1ccccc1)CN1CCC(N(C)c2nccn(Cc3ccc(CN)cc3)c2=O)CC1`
Low

Place this compound in its band: C/C(=C\c1ccccc1)CN1CCC(Nc2nccn(CCCN)c2=O)CC1 [1-1]
Low

Place this compound in its band: `O=c1c(NC2CCN(C/C=C/c3ccccc3)CC2)nccn1Cc1ccccc1Br`
High

Place this compound in its band: `C/C(=C\c1ccccc1)CN1CCC(Nc2nccn(-c3ccc(CNCCN4CCCC4)cc3)c2=O)CC1`
Low

Place this compound in its band: C/C(=C\c1ccccc1)CN1CCC(Nc2nccn(Cc3csc(C)n3)c2=O)CC1 [6-6]
Mid

Place this compound in its band: O=c1c(NC2CCN(C/C=C/c3ccccc3)CC2)nccn1CC1CCCCO1 (stereo not shown)
High

Place this compound in its band: `COC(=O)c1cccc(Cn2ccnc(NC3CCN(C/C(C)=C/c4ccccc4)CC3)c2=O)c1`
Low

Place this compound in its band: `C/C(=C\c1ccccc1)CN1CCC(Nc2nccn(Cc3ccc(CNC(=O)c4ccco4)cc3)c2=O)CC1`
Mid

Place this compound in its band: `C/C(=C\c1ccccc1)CN1CCC(Nc2nccn(CCCNC(=O)c3ccccc3)c2=O)CC1`
Mid

Place this compound in its band: `CSc1ccc(-n2ccnc(NC3CCN(C/C(C)=C/c4ccccc4)CC3)c2=O)cc1`
Low

Place this compound in its band: `C/C(=C\c1ccccc1)CN1CCC(Nc2nccn(Cc3ccc(CNS(=O)(=O)c4ccc(C(F)(F)F)cc4)cc3)c2=O)CC1`
Mid

Place this compound in its band: `COC(=O)CCCCn1ccnc(NC2CCN(C/C(C)=C/c3ccccc3)CC2)c1=O`
Low

Place this compound in its band: `O=c1c(NC2CCN(C/C=C/c3ccccc3)CC2)nccn1CC1CCCCC1`
High

Place this compound in its band: `CCCCS(=O)(=O)NCc1ccc(Cn2ccnc(NC3CCN(C/C(C)=C/c4ccccc4)CC3)c2=O)cc1`
High

Place this compound in its band: `C/C(=C\c1ccccc1)CN1CCC(Nc2nccn(CCCN(c3ccccc3)S(=O)(=O)c3ccccc3)c2=O)CC1`
Mid

Place this compound in its band: `C/C(=C\c1ccccc1)CN1CCC(Nc2nccn(-c3cccc(N4CCCCC4)c3)c2=O)CC1`
Low

Place this compound in its band: `CCOC(=O)CCCCn1ccnc(NC2CCN(C/C(C)=C/c3ccccc3)CC2)c1=O`
Mid

Place this compound in its band: `C/C(=C\c1ccccc1)CN1CCC(Nc2nccn(-c3ccsc3)c2=O)CC1`
Low

Place this compound in its band: `C/C(=C\c1ccccc1)CN1CCN(c2nccn(Cc3ccc(CN)cc3)c2=O)CC1`
Low

Place this compound in its band: C/C(=C\c1ccccc1)CN1CCC(Nc2nccn(CC3CCCCO3)c2=O)CC1 (stereo not shown)
Mid

Place this compound in its band: `CC(=O)CN(C)CCCn1ccnc(NC2CCN(C/C(C)=C/c3ccccc3)CC2)c1=O`
High

Place this compound in its band: `O=c1c(NC2CCN(C/C=C/c3ccccc3)CC2)nccn1CCN1CCCCC1`
High

Place this compound in its band: `C/C(=C\c1ccccc1)CN1CCC(Nc2nccn(CC(=O)N3CCCCC3)c2=O)CC1`
Mid

Place this compound in its band: `C/C(=C\c1ccccc1)CN1CCC(Nc2nccn(CC(=O)N(CCN(C)C)Cc3ccc(F)cc3)c2=O)CC1`
Mid

====

Would you mind telling me the reported IC50 of each entry?
Target: hα2C receptor (Homo sapiens)
Construct: expressed in transfected cells; host or cells: CHO cells, stably transfected; membrane preparation
Sequence (P18825 1-462): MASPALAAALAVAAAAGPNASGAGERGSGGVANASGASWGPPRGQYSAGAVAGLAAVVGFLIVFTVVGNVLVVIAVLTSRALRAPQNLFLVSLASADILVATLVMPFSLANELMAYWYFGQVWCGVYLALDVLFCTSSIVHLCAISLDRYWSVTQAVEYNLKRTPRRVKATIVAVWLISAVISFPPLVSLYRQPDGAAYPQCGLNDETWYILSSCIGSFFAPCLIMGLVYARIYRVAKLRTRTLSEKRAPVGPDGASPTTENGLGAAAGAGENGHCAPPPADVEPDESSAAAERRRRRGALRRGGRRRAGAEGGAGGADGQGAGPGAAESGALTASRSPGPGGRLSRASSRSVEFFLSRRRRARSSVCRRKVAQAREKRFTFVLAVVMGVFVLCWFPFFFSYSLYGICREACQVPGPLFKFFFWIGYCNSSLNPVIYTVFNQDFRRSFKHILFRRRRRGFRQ
Test: Radioligand binding experiment for α2C-adrenoceptor ([3H]raulwolscine, CHO cell membranes)
Conditions: [3H]raulwolscine binding, read-out: h-α2C pIC50 (converted)
Just the number in nM, nothing appended.

For `O=c1c(NC2CCN(C/C=C/c3ccccc3)CC2)nccn1CCc1ccccc1` , write its IC50.
200

For C/C(=C\c1ccccc1)CN1CCC(Nc2nccn(-c3ccc(C(=O)N4CCC(N(C)C)C4)cc3)c2=O)CC1 (centres unmarked) , write its IC50.
5.01

For `C/C(=C\c1ccccc1)CN1CCC(Nc2nccn(CC(=O)NCCN(C)C)c2=O)CC1` , write its IC50.
2

For `C/C(=C\c1ccccc1)CN1CCC(Nc2nccn(Cc3ccc(CNC(=O)NCCS)cc3)c2=O)CC1` , write its IC50.
126

For `C/C(=C\c1ccccc1)CN1CCC(Nc2nccn(Cc3ccc(CNC(=O)c4ccccc4)cc3)c2=O)CC1` , write its IC50.
31.6

For `C/C(=C\c1ccccc1)CN1CCC(Nc2ncc[nH]c2=O)CC1` , write its IC50.
31.6

For `COCCCn1ccnc(N2CCN(C/C(C)=C/c3ccccc3)CC2)c1=O` , write its IC50.
79.4

For C/C(=C\c1ccccc1)CN1CCC(Nc2nccn(CC(=O)C(C)(C)C)c2=O)CC1 [7-9] , write its IC50.
7.94

For `C/C(=C\c1ccccc1)CN1CCC(Nc2nccn(CCCN(C)C(=O)Nc3ccccc3)c2=O)CC1` , write its IC50.
6.31

For `CN(C)CCn1ccnc(NC2CCN(C/C=C/c3ccccc3)CC2)c1=O` , write its IC50.
158

For `C/C(=C\c1ccccc1)CN1CCC(Nc2nccn(Cc3ccc(CNC(=O)c4ccc(C#N)cc4)cc3)c2=O)CC1` , write its IC50.
50.1

For `COC(=O)c1cccc(Cn2ccnc(NC3CCN(C/C(C)=C/c4ccccc4)CC3)c2=O)c1` , write its IC50.
20

For `CCCCS(=O)(=O)NCc1ccc(Cn2ccnc(NC3CCN(C/C(C)=C/c4ccccc4)CC3)c2=O)cc1` , write its IC50.
50.1

For `CNCc1ccc(Cn2ccnc(NC3CCN(C/C(C)=C/c4ccccc4)CC3)c2=O)cc1` , write its IC50.
3.98

For `C/C(=C\c1ccccc1)CN1CCN(c2nccn(CC(=O)C(C)(C)C)c2=O)CC1` , write its IC50.
63.1

For `C/C(=C\c1ccccc1)CN1CCC(Nc2nccn(CC(=O)N(CCN3CCCC3)CC3CCCCC3)c2=O)CC1` , write its IC50.
1.58

For C/C(=C\c1ccccc1)CN1CCC(Nc2nccn(CC(=O)NCC3CCCO3)c2=O)CC1 (centres unmarked) , write its IC50.
6.31

====

Target: hα2C receptor (Homo sapiens, UniProt P18825)
Construct: expressed in transfected cells; host or cells: CHO cells, stably transfected; membrane preparation
Sequence (P18825 1-462): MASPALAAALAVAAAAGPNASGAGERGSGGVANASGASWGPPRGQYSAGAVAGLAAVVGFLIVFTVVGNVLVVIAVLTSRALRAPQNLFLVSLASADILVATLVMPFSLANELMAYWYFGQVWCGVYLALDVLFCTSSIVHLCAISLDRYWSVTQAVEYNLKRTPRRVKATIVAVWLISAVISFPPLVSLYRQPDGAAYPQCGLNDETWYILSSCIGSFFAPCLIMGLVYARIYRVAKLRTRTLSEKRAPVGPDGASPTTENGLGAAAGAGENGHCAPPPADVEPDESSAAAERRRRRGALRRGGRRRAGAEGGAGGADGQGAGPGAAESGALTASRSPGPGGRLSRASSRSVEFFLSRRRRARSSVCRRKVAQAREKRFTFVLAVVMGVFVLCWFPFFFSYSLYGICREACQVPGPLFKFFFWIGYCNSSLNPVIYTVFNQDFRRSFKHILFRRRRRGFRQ
Assay: Radioligand binding experiment for α2C-adrenoceptor ([3H]raulwolscine, CHO cell membranes)
Conditions: [3H]raulwolscine binding, read-out: h-α2C pIC50 (converted)
Procedure: The interaction of a compound of Formula (I) with α2-adrenoceptor receptors was assessed in in vitro radioligand binding experiments. […] When equilibrium of binding is reached, the receptor bound radioactivity is separated from the non-bound radioactivity, and the receptor- or transporter-bound activity is counted. The interaction of the test compounds with the receptor is assessed in competition binding experiments. […]
Would you mind telling me the reported IC50 of each entry?
Just the number in nM, nothing appended.

For `C/C(=C\c1ccccc1)CN1CCC(Nc2nccn(CC(=O)N(CCCN3CCCC3)Cc3ccc(F)cc3)c2=O)CC1` , write its IC50.
0.794

For `C/C(=C\c1ccccc1)CN1CCC(Nc2nccn(-c3ccc(C(=O)NCCN4CCCCC4)cc3)c2=O)CC1` , write its IC50.
3.98

For `C/C(=C\c1ccccc1)CN1CCC(Nc2nccn(-c3ccc(N)cc3)c2=O)CC1` , write its IC50.
6.31

For `CC(=O)CNCCCn1ccnc(NC2CCN(C/C(C)=C/c3ccccc3)CC2)c1=O` , write its IC50.
3.98

For `C/C(=C\c1ccccc1)CN1CCC(Nc2nccn(CCCCN3C(=O)c4ccccc4C3=O)c2=O)CC1` , write its IC50.
3.98

For `C/C(=C\c1ccccc1)CN1CCC(Nc2nccn(Cc3ccc(F)cc3)c2=O)CC1` , write its IC50.
63.1

For `C/C(=C\c1ccccc1)CN1CCC(Nc2nccn(CCCN(C(=O)Nc3ccccc3)c3ccccc3)c2=O)CC1` , write its IC50.
7.94

For `C/C(=C\c1ccccc1)CN1CCC(Nc2nccn(CCCN(Cc3ccccc3)C(=O)c3ccccc3)c2=O)CC1` , write its IC50.
12.6

For `COCCn1ccnc(NC2CCN(C/C=C/c3ccccc3)CC2)c1=O` , write its IC50.
631

For `C/C(=C\c1ccccc1)CN1CCC(Nc2nccn(CC(=O)N3CCC(O)(c4ccccc4)CC3)c2=O)CC1` , write its IC50.
7.94

For `COCCn1ccnc(NC2CCN(C/C(C)=C/c3ccccc3)CC2)c1=O` , write its IC50.
39.8

For `CCCCN(Cc1ccccc1)C(=O)Cn1ccnc(NC2CCN(C/C(C)=C/c3ccccc3)CC2)c1=O` , write its IC50.
12.6

For `COc1ccc(-n2ccnc(NC3CCN(C/C(C)=C/c4ccccc4)CC3)c2=O)cc1` , write its IC50.
7.94

For `C/C(=C\c1ccccc1)CN1CCC(Nc2nccn(-c3ccc(Nc4ccc(F)cc4)cc3)c2=O)CC1` , write its IC50.
5.01

For `C=CCN1CCN(C(=O)c2ccc(-n3ccnc(NC4CCN(C/C(C)=C/c5ccccc5)CC4)c3=O)cc2)CC1` , write its IC50.
7.94

For `C/C(=C\c1ccccc1)CN1CCC(Nc2nccn(CCCN)c2=O)CC1` , write its IC50.
6.31

For `C/C(=C\c1ccccc1)CN1CCC(Nc2nccn(CCC(N)=O)c2=O)CC1` , write its IC50.
31.6

For `C/C(=C\c1ccccc1)CN1CCC(Nc2nccn(CCCN(Cc3ccccc3)S(C)(=O)=O)c2=O)CC1` , write its IC50.
10

For `C/C(=C\c1ccccc1)CN1CCC(Nc2nccn(CCCN(Cc3ccccc3)C(=O)CC3CCCC3)c2=O)CC1` , write its IC50.
15.8

For `C/C(=C\c1ccccc1)CN1CCN(c2nccn(Cc3ccc(CN)cc3)c2=O)CC1` , write its IC50.
12.6

For `C/C(=C\c1ccccc1)CN1CCC(Nc2nccn(-c3cccc(NC(=O)CC4CCCC4)c3)c2=O)CC1` , write its IC50.
20

For `C=CCn1ccnc(NC2CCN(C/C(C)=C/c3ccccc3)CC2)c1=O` , write its IC50.
12.6

For `C/C(=C\c1ccccc1)CN1CCC(Nc2nccn(CCCN(C)C(=O)OC(C)(C)C)c2=O)CC1` , write its IC50.
6.31

For `C/C(=C\c1ccccc1)CN1CCC(Nc2nccn(CC(=O)NCCCN3CCCC3=O)c2=O)CC1` , write its IC50.
12.6

For `C/C(=C\c1ccccc1)CN1CCC(Nc2nccn(CC(=O)N(C)CCN(C)Cc3ccccc3)c2=O)CC1` , write its IC50.
0.794

For `C/C(=C\c1ccccc1)CN1CCC(Nc2nccn(-c3ccc(C(=O)N4CCN(C)CC4)cc3)c2=O)CC1` , write its IC50.
10

For `C/C(=C\c1ccccc1)CN1CCC(Nc2nccn(Cc3ccc(CNS(=O)(=O)c4ccccc4)cc3)c2=O)CC1` , write its IC50.
25.1

For `C/C(=C\c1ccccc1)CN1CCC(Nc2nccn(-c3ccc(N4CCN(c5ccccc5)CC4)cc3)c2=O)CC1` , write its IC50.
15.8

For `C/C(=C\c1ccccc1)CN1CCC(Nc2nccn(-c3ccc(NCCc4ccccc4)cc3)c2=O)CC1` , write its IC50.
10

For `C/C(=C\c1ccccc1)CN1CCC(Nc2nccn(CC(=O)N3CCOCC3)c2=O)CC1` , write its IC50.
12.6

For `C/C(=C\c1ccccc1)CN1CCC(Nc2nccn(-c3ccc(N4CCC(N5CCCC5)CC4)cc3)c2=O)CC1` , write its IC50.
5.01

For `C/C(=C\c1ccccc1)CN1CCC(Nc2nccn(CC(=O)NCCCN(C)C)c2=O)CC1` , write its IC50.
1.58

For `C/C(=C\c1ccccc1)CN1CCC(Nc2nccn(-c3ccc(C#N)cc3)c2=O)CC1` , write its IC50.
10
